Assign IC50, inhibition of SCF-dependent proliferation of TF-1 cells (CellTiter-Glo), Average to each entry below.
molecular target: CD117 on wild-type cells (TF-1 cells, HSPCs, HSCs) (human, UniProt P10721 26-976); test: cell-based or functional assay
Sequence (P10721 26-976 limits assumed): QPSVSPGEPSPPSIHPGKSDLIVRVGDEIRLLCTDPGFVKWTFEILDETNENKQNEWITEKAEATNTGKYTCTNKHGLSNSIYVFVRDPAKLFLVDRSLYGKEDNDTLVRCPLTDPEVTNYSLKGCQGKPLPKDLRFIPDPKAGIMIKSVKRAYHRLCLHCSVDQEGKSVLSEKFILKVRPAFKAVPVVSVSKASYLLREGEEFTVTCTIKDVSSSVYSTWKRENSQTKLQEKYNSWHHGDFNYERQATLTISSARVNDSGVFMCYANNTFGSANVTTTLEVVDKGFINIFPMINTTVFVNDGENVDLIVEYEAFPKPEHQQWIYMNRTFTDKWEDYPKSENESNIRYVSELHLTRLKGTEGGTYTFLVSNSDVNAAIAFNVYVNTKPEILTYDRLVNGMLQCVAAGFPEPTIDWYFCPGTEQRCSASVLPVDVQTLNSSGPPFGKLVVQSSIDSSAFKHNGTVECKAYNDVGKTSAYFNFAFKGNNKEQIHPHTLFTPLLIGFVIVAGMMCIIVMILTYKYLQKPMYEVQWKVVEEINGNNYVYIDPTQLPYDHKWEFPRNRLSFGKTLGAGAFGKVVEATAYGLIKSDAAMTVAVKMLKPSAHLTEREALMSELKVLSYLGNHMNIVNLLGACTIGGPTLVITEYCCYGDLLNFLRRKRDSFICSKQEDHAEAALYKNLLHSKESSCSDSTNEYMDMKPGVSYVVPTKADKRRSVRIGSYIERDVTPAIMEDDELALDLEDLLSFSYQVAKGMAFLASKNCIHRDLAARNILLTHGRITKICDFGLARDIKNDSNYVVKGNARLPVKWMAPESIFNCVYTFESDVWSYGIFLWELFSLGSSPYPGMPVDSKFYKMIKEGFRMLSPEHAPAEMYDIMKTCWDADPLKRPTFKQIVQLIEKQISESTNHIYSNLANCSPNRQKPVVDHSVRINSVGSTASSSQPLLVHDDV
One number for each entry, in µg/mL.

Some binders with known IC50, inhibition of SCF-dependent proliferation of TF-1 cells (CellTiter-Glo), Average results, for comparison:
{"binder": "Bellavista (antibody, V domains shown, IgG; also called VH1.4/VL1.29) VH: QVQLVQSGAEVKKPGASVKVSCKASGYTFTSYNMHWVRQAPGQGLEWMGVIYSGQGDTSYNQKFKGRVTMTTDTSTSTAYMELRSLTSDDTAVYYCARERDTRFGNWGQGTLVTVSA VL: EIVLTQSPSSLSASVGDRVTITCRASESVDIYGESFMHWYQQKPGKAPKLLIYLASNLESGVPSRFSGSGSGTDFTLTISSLQPEDFATYYCQQNREEPYTFGQGTKLEIKR", "endpoint.value": 0.157}
{"binder": "AMG191 (antibody, human IgG1, V domains shown) VH: QVQLVQSGAEVKKPGASVKVSCKASGYTFTSYNMHWVRQAPGQGLEWMGVIYSGNGDTSYNQKFKGRVTITADKSTSTAYMELSSLRSEDTAVYYCARERDTRFGNWGQGTLVTVSS VL: DIVMTQSPDSLAVSLGERATINCRASESVDIYGNSFMHWYQQKPGQPPKLLIYLASNLESGVPDRFSGSGSGTDFTLTISSLQAEDVAVYYCQQNNEDPYTFGGGTKVEIKR", "endpoint.value": 0.208}

# next binder below
Item Matterhorn (antibody, V domains shown, IgG; also called VH1/VL1.4; VH1/LC1.4) VH: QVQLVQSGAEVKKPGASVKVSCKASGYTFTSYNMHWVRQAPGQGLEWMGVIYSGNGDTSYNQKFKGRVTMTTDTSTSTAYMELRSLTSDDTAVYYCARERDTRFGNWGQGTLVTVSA VL: EIVLTQSPSSLSASVGDRVTITCRASESVDIYGSSFMHWYQQKPGKAPKLLIYLASNLESGVPSRFSGSGSGTDFTLTISSLQPEDFATYYCQQNNEDPYTFGQGTKLEIKR : provide IC50, inhibition of SCF-dependent proliferation of TF-1 cells (CellTiter-Glo), Average
0.116
